assay: CHI Log D procedure; assay type: physicochemical; conditions: pH 7.4, CHI Log D
parameter.measured: chromatographic logD
Just the number, please.

// below: answered compounds
compound="CC(=O)N1CCC[C@]12CC=CCCCC1(CCCC=CCCCOC(=O)N3CC[C@@](C(=O)N[C@@H](Cc4ccccc4Cl)C(=O)N[C@@H](Cc4csc5ccccc45)C(=O)N[C@@H](CCC(N)=O)C(N)=O)(C3)NC(=O)[C@H](CO)NC(=O)[C@H](Cc3ccccc3)NC(=O)[C@H](C)NC(=O)[C@H](C)NC(=O)[C@H](CC(=O)O)NC(=O)[C@H](CC(=O)O)NC1=O)NC(=O)[C@H](Cc1ccccc1)NC(=O)[C@H](CC(=O)O)NC2=O (some centres unmarked)" value_observed=2.12
compound="CC[C@H](C)[C@@H]1NC(=O)[C@H](CC(=O)O)NC(=O)[C@]2(CC=CCCCC3(CCCC=CCCCCCC[C@@](C)(C(=O)N[C@@H](Cc4ccccc4)C(=O)N[C@@H](Cc4csc5ccccc45)C(=O)N[C@@H](CCC(N)=O)C(N)=O)NC(=O)[C@H](CCC(N)=O)NC(=O)[C@H](Cc4ccccc4)NC(=O)[C@H](Cc4ccccc4)NC(=O)[C@H](C)NC(=O)[C@H](CCC(=O)O)NC(=O)[C@H](CC(=O)O)NC3=O)NC1=O)CCCN2C(C)=O (some centres unmarked)" value_observed=2.75
compound="COc1cccc(C[C@@H]2NC(=O)[C@H](C)NC(=O)[C@H](C)NC(=O)[C@H](CC(=O)O)NC(=O)[C@H](CC(=O)O)NC(=O)C3(CCCC=CCCCOC(=O)N4CC[C@@](C(=O)N[C@@H](Cc5ccccc5)C(=O)N[C@@H](Cc5csc6ccccc56)C(=O)N[C@@H](CCC(N)=O)C(N)=O)(C4)NC(=O)[C@H](CC(C)C)NC2=O)CCCC=CC[C@]2(CCCN2C(C)=O)C(=O)N[C@@H](CC(=O)O)C(=O)N[C@@H](CC(C)(C)C)C(=O)N3)c1 (some centres unmarked)" value_observed=2.18
compound="CC[C@H](C)[C@@H]1NC(=O)[C@H](CC(=O)O)NC(=O)[C@]2(CC=CCCCC3(CCCC=CCCCCCC[C@@](C)(C(=O)N[C@@H](Cc4ccccc4)C(=O)N[C@@H](Cc4csc5ccccc45)C(=O)N[C@@H](CCC(N)=O)C(N)=O)NC(=O)[C@H](CCC(N)=O)NC(=O)[C@H](Cc4ccccc4)NC(=O)[C@H](C)NC(=O)[C@H](C)NC(=O)[C@H](CCC(=O)O)NC(=O)C[C@H](C(=O)O)NC3=O)NC1=O)CCCN2C(C)=O (some centres unmarked)" value_observed=1.95

The value of chromatographic logD measured for the compound CCCC(=O)NCCCC[C@H](NC(=O)[C@H](CCC(N)=O)NC(=O)[C@H](Cc1csc2ccccc12)NC(=O)[C@H](Cc1ccsc1)NC(=O)[C@]12CCN(C1)C(=O)OCCCC=CCCCC1(CCCC=CC[C@]3(CCCN3C(C)=O)C(=O)N[C@@H](CC(=O)O)C(=O)N[C@@H](CC(C)(C)C)C(=O)N1)C(=O)N[C@@H](CC(=O)O)C(=O)N[C@@H](CC(=O)O)C(=O)N[C@@H](C)C(=O)N[C@@H](C)C(=O)N[C@@H](Cc1ccccc1)C(=O)N[C@@H](CC(N)=O)C(=O)N2)C(N)=O (some centres unmarked) turned out to be 2.15
